- tested_on: ROCK1 (Homo sapiens (Human), UniProt Q13464)
- Sequence (Q13464 2-1354 limits assumed): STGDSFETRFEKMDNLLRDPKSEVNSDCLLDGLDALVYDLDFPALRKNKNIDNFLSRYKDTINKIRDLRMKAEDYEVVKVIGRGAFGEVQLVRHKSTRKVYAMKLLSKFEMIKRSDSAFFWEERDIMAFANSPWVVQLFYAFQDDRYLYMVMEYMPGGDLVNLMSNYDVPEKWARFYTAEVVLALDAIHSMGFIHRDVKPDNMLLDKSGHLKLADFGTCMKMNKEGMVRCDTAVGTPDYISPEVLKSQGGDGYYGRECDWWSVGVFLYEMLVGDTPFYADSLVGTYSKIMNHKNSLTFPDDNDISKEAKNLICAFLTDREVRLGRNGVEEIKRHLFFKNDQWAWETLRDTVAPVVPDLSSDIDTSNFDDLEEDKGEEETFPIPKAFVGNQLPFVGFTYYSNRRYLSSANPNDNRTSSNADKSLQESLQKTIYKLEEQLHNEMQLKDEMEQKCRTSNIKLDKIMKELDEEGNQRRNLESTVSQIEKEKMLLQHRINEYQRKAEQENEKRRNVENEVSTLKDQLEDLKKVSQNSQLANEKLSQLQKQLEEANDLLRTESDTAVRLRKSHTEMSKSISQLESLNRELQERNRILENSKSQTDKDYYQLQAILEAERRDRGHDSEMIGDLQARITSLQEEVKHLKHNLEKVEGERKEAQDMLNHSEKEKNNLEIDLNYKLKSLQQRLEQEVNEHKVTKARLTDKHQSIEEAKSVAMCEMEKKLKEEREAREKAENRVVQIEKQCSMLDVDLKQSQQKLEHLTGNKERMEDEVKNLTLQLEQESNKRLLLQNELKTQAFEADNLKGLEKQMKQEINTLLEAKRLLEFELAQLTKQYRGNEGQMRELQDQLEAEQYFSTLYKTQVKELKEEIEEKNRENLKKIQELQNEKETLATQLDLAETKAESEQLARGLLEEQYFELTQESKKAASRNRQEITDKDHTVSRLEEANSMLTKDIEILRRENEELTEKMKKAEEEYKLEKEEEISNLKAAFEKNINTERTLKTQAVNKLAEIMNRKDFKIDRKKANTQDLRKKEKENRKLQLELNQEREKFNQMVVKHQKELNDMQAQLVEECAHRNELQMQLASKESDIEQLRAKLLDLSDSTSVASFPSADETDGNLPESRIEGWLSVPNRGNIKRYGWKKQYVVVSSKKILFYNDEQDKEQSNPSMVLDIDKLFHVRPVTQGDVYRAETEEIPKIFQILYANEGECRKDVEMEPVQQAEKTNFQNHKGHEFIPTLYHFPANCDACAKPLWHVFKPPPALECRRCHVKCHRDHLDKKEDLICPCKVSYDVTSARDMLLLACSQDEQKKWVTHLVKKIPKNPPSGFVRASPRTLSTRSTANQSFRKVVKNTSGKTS
- assay_name: biochemical
Ki less than 300 nM is Satisfied; Ki greater than or equal to 300 nM is Not satisfied.

c1cc(N2CCC[C@@]3(CCCCN3)C2)c2c(-c3ncsn3)c[nH]c2n1 [Example E116]; Satisfied
c1csc(-c2c[nH]c3nccc(N4CC[C@@]5(CCCN5)C4)c23)n1 [Example E134]; Satisfied
c1csc(-c2c[nH]c3nccc(N4CCC5(CCCCN5)C4)c23)n1 (stereo not drawn) [Example E155]; Satisfied

// query Determine whether this compound shows Ki lower than 300 nM (ties excluded): c1cc(N2CCCC3(CCCCN3)C2)c2c(-c3cnsc3)c[nH]c2n1 (stereo not drawn) [Example E114]
// result Satisfied

// query Same thing, different compound: CN[C@H]1CCCN(c2ccnc3[nH]cc(-c4cc[nH]n4)c23)C1 [Example E83]
// result Not satisfied

// query Same thing, different compound: c1cc(N2CCC[C@@]3(CCCCN3)C2)c2c(-c3ccsn3)c[nH]c2n1 [Example E120]
// result Satisfied

// query Same thing, different compound: CN1CC[C@@H]2CCN(c3ccnc4[nH]cc(-c5cncnc5)c34)C[C@@H]21 [Example E180]
// result Not satisfied

// query Same thing, different compound: CN(C)C1CCCN(c2ccnc3[nH]cc(-c4cncnc4)c23)C1 (stereo not drawn) [Example E60]
// result Not satisfied

// query Same thing, different compound: c1cc(N2CCC3(CCCCN3)C2)c2c(-c3ncsn3)c[nH]c2n1 (stereo not drawn) [Example E129]
// result Satisfied

// query Same thing, different compound: N#Cc1c[nH]c2nccc(N3CCC[C@H]3COc3ccccc3)c12 [Example E40]
// result Not satisfied

// query Same thing, different compound: N#Cc1c[nH]c2nccc(N3CCC[C@H]3CO)c12 [Example E38]
// result Satisfied

// query Same thing, different compound: c1cc(-c2c[nH]c3nccc(N4CCC[C@H](NC5CC5)C4)c23)ncn1 [Example E41]
// result Satisfied

// query Same thing, different compound: N#Cc1c[nH]c2nccc(N3CCC[C@]4(CCCCN4)C3)c12 [Example E186]
// result Not satisfied

// query Same thing, different compound: c1cc(-c2c[nH]c3nccc(N4CCC[C@@]5(CCCCN5)C4)c23)ncn1 [Example E117]
// result Satisfied

// query Same thing, different compound: CN1CCC[C@@H](COc2ccnc3[nH]cc(-c4cncnc4)c23)C1 [Example E224]
// result Satisfied

// query Same thing, different compound: CCN1CCCCC12CCCN(c1ccnc3[nH]cc(-c4nccs4)c13)C2 (stereo not drawn) [Example E209]
// result Satisfied

// query Same thing, different compound: c1cc(-c2c[nH]c3nccc(N4CCC[C@@]5(CCCCN5)C4)c23)cnn1 [Example E174]
// result Not satisfied

// query Same thing, different compound: c1csc(-c2c[nH]c3nccc(N4CCC[C@@]5(CCCCN5)C4)c23)n1 [Example E150]
// result Satisfied
